experimental_target: T1, Ac-VQIINK-NH2
T1 peptide: Ac-VQIINK-NH2
protocol_details: cell-based or functional assay
IC50 (µM), VQIINK Inhibition (ThT) listing for selected binders.
readout_kind: IC50 (µM), VQIINK Inhibition (ThT)

INSERT INTO results (binder, value_measured) VALUES
  ('WRIWIRYW', 1.89),
  ('WRIRLRW', 4.04),
  ('WWIRIRYWR', 1.79);

Data provenance is patent US20230137562A1.
